# Target entity: Aurora A (Homo sapiens, UniProt O14965)
# Sequence (O14965 1-403): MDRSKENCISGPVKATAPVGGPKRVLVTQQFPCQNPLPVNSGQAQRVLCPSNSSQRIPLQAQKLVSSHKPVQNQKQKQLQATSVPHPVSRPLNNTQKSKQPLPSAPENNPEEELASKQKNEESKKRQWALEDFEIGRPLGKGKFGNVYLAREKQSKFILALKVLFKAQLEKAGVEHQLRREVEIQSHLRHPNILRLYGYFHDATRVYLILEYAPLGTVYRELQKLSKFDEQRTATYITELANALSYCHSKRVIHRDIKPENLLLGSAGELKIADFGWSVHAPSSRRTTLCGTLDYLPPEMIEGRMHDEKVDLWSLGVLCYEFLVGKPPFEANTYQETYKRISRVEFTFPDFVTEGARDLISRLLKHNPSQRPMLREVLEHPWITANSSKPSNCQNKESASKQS
# Protocol notes: Kinase profiling (radiometric filter-binding)
# Type: biochemical
# Cond: 1 µM inhibitor, read-out: Residual activity, %
Square brackets hold non-standard residues; d marks the D form. Peptide text beside a SMILES is read from it. * marks the point of attachment. X3 = O=C(CCCCCNCc1nc2c(sc3cc(Br)cnc32)c(=O)[nH]1)*
Measurement type: remaining activity at 1 µM (%)
Form entry: value (%) — number only.

Just so you know, measured remaining activity at 1 µM for N=C(N)NCCC[C@@H](NC(=O)CNC(=O)[C@@H](CCCNC(=N)N)NC(=O)[C@@H](CCCNC(=N)N)NC(=O)CCCCCCCNCc1nc2c(sc3ccc(Br)cc32)c(=O)[nH]1)C(=O)N[C@H](CCCCN)C(N)=O came out at 106

Entry N=C(N)NCCC[C@@H](NC(=O)CNC(=O)[C@@H](CCCNC(=N)N)NC(=O)[C@@H](CCCNC(=N)N)NC(=O)CCCCCCCNCc1nc2c(sc3cc(Br)cnc32)c(=O)[nH]1)C(=O)N[C@H](CCCCN)C(N)=O ; remaining activity at 1 µM = 99

What the record says about N=C(N)NCCC[C@@H](NC(=O)CCCCCNC(=O)Cn1cnc2c(I)c(I)c(I)c(I)c21)C(=O)N[C@H](CCCNC(=N)N)C(=O)N[C@H](CCCNC(=N)N)C(=O)N[C@H](CCCNC(=N)N)C(=O)N[C@H](CCCNC(=N)N)C(=O)N[C@H](CCCNC(=N)N)C(=O)N[C@H](CCCCN)C(N)=O : remaining activity at 1 µM is 84

The value of remaining activity at 1 µM measured for the compound N=C(N)NCCC[C@@H](NC(=O)CNC(=O)[C@@H](CCCNC(=N)N)NC(=O)[C@@H](CCCNC(=N)N)NC(=O)Cn1cc(CNCc2nc3c(sc4ccc(Br)cc43)c(=O)[nH]2)nn1)C(=O)N[C@H](CCCCN)C(N)=O turned out to be 97

Memo: N=C(N)NCCC[C@@H](NC(=O)CCCCCNCc1nc2c(sc3cc(Br)cnc32)c(=O)[nH]1)C(=O)N[C@H](CCCNC(=N)N)C(=O)N[C@H](CCCNC(=N)N)C(=O)N[C@H](CCCNC(=N)N)C(=O)N[C@H](CCCNC(=N)N)C(=O)N[C@H](CCCNC(=N)N)C(=O)N[C@H](CCCCN)C(N)=O [ARC-3126, BPTP-Ahx-(D-Arg)6-D-Lys-NH2] (X3-[dR][dR][dR][dR][dR][dR][dK]-NH2) , reported remaining activity at 1 µM: 132
